Recorded values, source patent US20030044399A1.

# Lookup of reported pKi keyed by entry
Study system: Schisto B 2 (Schistosoma mansoni)
Sequence (Q95PM1 entry or part of it): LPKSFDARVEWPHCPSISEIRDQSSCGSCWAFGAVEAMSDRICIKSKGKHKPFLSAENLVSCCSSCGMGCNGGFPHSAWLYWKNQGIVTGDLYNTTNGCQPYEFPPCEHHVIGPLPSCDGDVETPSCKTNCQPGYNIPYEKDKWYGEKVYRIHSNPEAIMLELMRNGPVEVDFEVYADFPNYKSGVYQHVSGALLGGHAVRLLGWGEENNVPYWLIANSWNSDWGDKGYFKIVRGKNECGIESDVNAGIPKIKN
Protocol notes: Cysteine protease inhibition, progress curve method, schistosoma B 2
Type: biochemical
Test parameters: 10 uM Cbz-Phe-Arg-AMC, 100 mM Na acetate pH 5.5, 5 mM cysteine
Friendly reminder that pKi comes from taking -log10 of the concentration in mol/L.

Problem: Param readout = pKi; param system = Schisto B 2 (Schistosoma mansoni); param query = COc1ccc2oc(C(=O)N[C@@H](CC(C)C)C(=O)N[C@H]3CCCN(S(=O)(=O)c4cccc(Cl)c4)CC3=O)cc2c1 ; response: value
Solution: 6.89

Problem: Can you check COc1ccc2oc(C(=O)N[C@@H](CC(C)C)C(=O)N[C@H]3CCCN(S(=O)(=O)c4ccc(Cl)cc4)CC3=O)cc2c1 next?
Solution: 6.06

----------
# Lookup of reported Ki keyed by entry
Study system: Rhodazain (Trypanosoma brucei rhodesiense)
Sequence (Q95PM0 entry or part of it): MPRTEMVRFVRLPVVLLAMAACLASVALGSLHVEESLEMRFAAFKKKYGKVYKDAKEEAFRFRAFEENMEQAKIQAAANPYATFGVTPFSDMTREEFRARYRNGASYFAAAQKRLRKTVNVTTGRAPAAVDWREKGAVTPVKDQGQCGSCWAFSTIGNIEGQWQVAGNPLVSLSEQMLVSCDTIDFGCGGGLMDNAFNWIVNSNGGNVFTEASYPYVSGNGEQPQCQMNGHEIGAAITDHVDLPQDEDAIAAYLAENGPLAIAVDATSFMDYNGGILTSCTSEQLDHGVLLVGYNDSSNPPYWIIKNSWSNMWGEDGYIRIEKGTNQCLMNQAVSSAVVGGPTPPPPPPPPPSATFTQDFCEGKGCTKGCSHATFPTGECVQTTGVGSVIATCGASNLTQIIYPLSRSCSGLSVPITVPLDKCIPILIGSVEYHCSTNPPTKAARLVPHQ
Protocol notes: Cysteine protease inhibition, progress curve method, rhodazain
Type: biochemical, Trypanosoma brucei rhodesiensi
Test parameters: Rhodazain Ki (nM), 10 uM Cbz-Leu-Arg-AMC, 100 mM Na acetate pH 5.5, 5 mM cysteine
Hi, when you answer, please include the unit after the number. Thanks!

These solved cases illustrate the format of a correct answer.
Compound	Ki
COc1cccc2cc(C(=O)N[C@@H](CC(C)C)C(=O)N[C@@H]3CCCN(S(=O)(=O)c4cccs4)CC3=O)oc12	8.6 nM
CC(C)C[C@@H](NC(=O)c1cc2cc(F)ccc2o1)C(=O)N[C@H]1CCCN(S(=O)(=O)c2cccc[n+]2[O-])CC1=O (single isomer, unassigned) [Example 194]	6.7 nM

Problem: Can you share its Ki? I mean this compound: CC(C)CC(NC(=O)c1cc2ccccc2s1)C(=O)NC1CCCN(S(=O)(=O)c2ccccn2)CC1=O (stereo in doubt)
Solution: 1.9 nM

----------
Study system: UniProt:Q95PM0
Protocol notes: Cysteine protease inhibition, progress curve method, rhodazain
Assay type: biochemical, Trypanosoma brucei rhodesiensi
Test parameters: Rhodazain Ki (nM), 10 uM Cbz-Leu-Arg-AMC, 100 mM Na acetate pH 5.5, 5 mM cysteine
Quick rule for you: Ki under 8 nM gets satisfied, anything else gets not satisfied.

Problem: For CC(C)C[C@@H](NC(=O)c1cc2cc(F)ccc2o1)C(=O)N[C@@H]1CCCN(S(=O)(=O)c2ccccn2)CC1=O (single isomer, unassigned) , is the recorded Ki below the cut-off of 8 nM?
Solution: satisfied

Problem: Can you check CC(C)C[C@@H](NC(=O)c1cnc2ccccc2n1)C(=O)N[C@@H]1CCCN(S(=O)(=O)c2ccccn2)CC1=O (stereo in doubt) next?
Solution: not satisfied

Problem: Can you check O=C(N[C@H](CC1CCCCC1)C(=O)N[C@@H]1CCCN(S(=O)(=O)c2ccccn2)CC1=O)c1cc2ccccc2o1 (stereo in doubt) next?
Solution: satisfied

Problem: Can you check COc1ccc2c(C)c(C(=O)NC(CC(C)C)C(=O)N[C@H]3CCN(S(=O)(=O)c4cccc[n+]4[O-])CCC3=O)oc2c1 (single isomer, unassigned) next?
Solution: satisfied

Problem: Can you check CC(C)CC(NC(=O)c1ccco1)C(=O)N[C@@H]1CCCN(S(=O)(=O)c2cccc[n+]2[O-])CC1=O (stereo partly drawn) next?
Solution: satisfied

Problem: Can you check CC(C)CC(NC(=O)c1cc2ccccc2n1C)C(=O)NC1CCCN(S(=O)(=O)c2cccs2)CC1=O (stereo not drawn) next?
Solution: not satisfied
